What Percent inhibition of the rate of pyrogallol auto-oxidation was measured for each of the following?
# test: superoxide dismutase activity: inhibition of pyrogallol auto-oxidation
# Format: biochemical
# condition.label: compound 0.5 mM; pyrogallol 0.750 mM; TRIS saline buffer pH 7.4; first two minutes; average of three measures
# Experimental: The pyrogallol auto-oxidation was measured at 420 nm according to the procedure Marklund & Marklund as reported in Vamecq et al. (2003). The incubation medium comprised TRIS saline buffer at pH 7.4 (5 mM TRIS, 50 mM NaCl) with either the vehicle (DMSO) or one of the compounds (final concentration 0.5 mM ) dissolved in DMSO. […] The results are given as percent inhibition of the rate of pyrogallol auto-oxidation measured during the first two minutes.

Entry N=C(N)c1ccc(NCCNc2ccc(C(=N)N)cc2)cc1 [Compound 2] ; Percent inhibition of the rate of pyrogallol auto-oxidation = 36.3%

The compound listed as CN(CCN(C)c1ccc(C(=N)N)cc1)c1ccc(C(=N)N)cc1 [Compound 3] shows Percent inhibition of the rate of pyrogallol auto-oxidation equal to 51.0%

For CCN(CCNc1ccc(C(=N)N)cc1)c1ccc(C(=N)N)cc1 [Compound 5] the compound record lists Percent inhibition of the rate of pyrogallol auto-oxidation as 28.8%

Per the record, CN(CCNc1ccc(C(=N)N)cc1)c1ccc(C(=N)N)cc1 [Compound 4] has Percent inhibition of the rate of pyrogallol auto-oxidation of 17.5%

// recorded Percent inhibition of the rate of pyrogallol auto-oxidation for N=C(N)c1ccc(N)cc1 [4-aminobenzaminidine, 4-aminobenzamidine, reference compound] : < 5%

###

# test: glutathione peroxidase activity: stimulation of peroxide-induced oxidation of reduced glutathione
# Format: biochemical
# condition.label: average glutathione oxidation rate, vehicle control = 100 %; 2 mM reduced glutathione; 5 mM t-butyl-hydroperoxide; 10 µl 50 mM compound in 1 mL; pH 7.4
Field: Effects of the compounds on the oxidation rate (%). Provide a value for each of the compounds that follow.

Summary for this compound, CN(CCNc1ccc(C(=N)N)cc1)c1ccc(C(=N)N)cc1 [Compound 4] : Effects of the compounds on the oxidation rate (%) is 107%

// sample CCN(CCNc1ccc(C(=N)N)cc1)c1ccc(C(=N)N)cc1 [Compound 5] , its Effects of the compounds on the oxidation rate (%) was 105%

Effects of the compounds on the oxidation rate (%) reported for this compound N=C(N)c1ccc(NCCNc2ccc(C(=N)N)cc2)cc1 [Compound 2] : < 100%

Recorded result, CN(CCN(C)c1ccc(C(=N)N)cc1)c1ccc(C(=N)N)cc1 [Compound 3] , Effects of the compounds on the oxidation rate (%): 197%

###

Consider the following molecules; for each one, report its ED50.
# Test system: chemical seizure (scPtz)
# test: subcutaneous pentylenetetrazol (scPtz) induced chemical seizure test
# Format: in vivo
# condition.label: Mus musculus, ip

Query `CN(CCN(C)c1ccc(C(=N)N)cc1)c1ccc(C(=N)N)cc1` yields ED50 of > 300 mg/kg

// ED50 value for `N=C(N)c1ccc(NCCNc2ccc(C(=N)N)cc2)cc1` : > 300 mg/kg

Per the records, this molecule ( `CN(CCNc1ccc(C(=N)N)cc1)c1ccc(C(=N)N)cc1` ) has ED50 equal to > 100 mg/kg

Form: molecule = `CCN(CCNc1ccc(C(=N)N)cc1)c1ccc(C(=N)N)cc1` ; ED50 = > 30 mg/kg
